# EXPERIMENTAL TARGET: RhlR (I84W) (Pseudomonas aeruginosa, UniProt P54292, I84W)
# Sequence (P54292 1-241 I84W): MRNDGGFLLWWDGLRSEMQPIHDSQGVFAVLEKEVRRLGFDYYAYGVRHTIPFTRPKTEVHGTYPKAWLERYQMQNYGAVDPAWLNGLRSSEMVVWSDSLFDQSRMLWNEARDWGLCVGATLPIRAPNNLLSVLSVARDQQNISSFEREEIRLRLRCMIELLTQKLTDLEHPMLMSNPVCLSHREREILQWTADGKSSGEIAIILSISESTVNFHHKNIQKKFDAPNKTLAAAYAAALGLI
# ASSAY REMARKS: E. coli prhlA-luxCDABE luciferase reporter assay
# EXPERIMENTAL SETUP: pqsE co-expressed
# Text: Previous analysis of the RhlR LBP focused on highly conserved residues that were known from other AHL-binding proteins to be important contacts for AHL molecules, particularly the lactone head group. We performed conservation analyses on 300 LuxR-type receptors to determine variable and moderately conserved residues in the LBP (Fig. 1B) and, in conjunction with our previously determined experimental structure of WT RhlR bound to the synthetic agonist mBTL, used for docking C4- and C6HSL. […]
READOUT KIND: EC50
The answer should read as a number with its unit following.

QUERY: Query EC50 for CCCC(=O)N[C@H]1CCOC1=O
RESULT: 5.2 µM
